Molecular target: UniProtKB P30405
Sequence (P30405 30-207): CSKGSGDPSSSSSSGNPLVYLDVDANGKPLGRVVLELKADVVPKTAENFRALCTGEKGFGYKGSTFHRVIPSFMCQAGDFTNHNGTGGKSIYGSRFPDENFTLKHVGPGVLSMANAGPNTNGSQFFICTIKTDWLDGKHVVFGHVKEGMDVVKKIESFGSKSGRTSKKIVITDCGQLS
Assay: Inhibitor binding to cyclophilin proteins by SPR, CypF
Conditions: 1:1 binding model
Starred links: 1 amine or outer side, 2 acyl side, 3 side chain; linkers in the order of their positions; H or OH if unused. Non-standard residues stand in square brackets, D forms with d. Residues, ends and D or L forms follow the SMILES beside them. X3 = C[C@H](CN1CCOCC1)[C@@H](C(=O)[*:2])N(C)[*:1]; MeBmt = C/C=C/C[C@@H](C)[C@@H](O)[C@H](NC)C(=O)O; NMeL = CN[C@@H](CC(C)C)C(=O)O; NMeV = CN[C@H](C(=O)O)C(C)C; dNMeA = CN[C@H](C)C(=O)O; Abu = CC[C@H](N)C(=O)O
observed.property: CypF Kd (pM)

compound="C/C=C/C[C@@H](C)[C@@H](O)[C@H]1C(=O)N[C@@H](CC)C(=O)N(C)[C@H](C)C(=O)N(C)[C@@H]([C@H](C)CN2CCOCC2)C(=O)N[C@@H](C(C)C)C(=O)N(C)[C@@H](CC(C)C)C(=O)N[C@@H](C)C(=O)N[C@H](C)C(=O)N(C)[C@@H](CC(C)C)C(=O)N(C)[C@@H](CC(C)C)C(=O)N(C)[C@@H](C(C)C)C(=O)N1C [Compound 2.5.2] (cyclo(A[dA][NMeL][NMeL][NMeV][MeBmt][Abu][dNMeA][X3]V[NMeL]))" recorded_measurement=2200
compound="C/C=C/C[C@@H](C)[C@@H](O)[C@H]1C(=O)N[C@@H](CC)C(=O)N(C)[C@H](C)C(=O)N(C)[C@@H]([C@H](C)CCCN2CCN(CC)CC2)C(=O)N[C@@H](C(C)C)C(=O)N(C)[C@@H](CC(C)C)C(=O)N[C@@H](C)C(=O)N[C@H](C)C(=O)N(C)[C@@H](CC(C)C)C(=O)N(C)[C@@H](CC(C)C)C(=O)N(C)[C@@H](C(C)C)C(=O)N1C (stereo in doubt) [Compound 2.19.4]" recorded_measurement=400
compound="C/C=C/C[C@@H](C)[C@@H](O)[C@H]1C(=O)N[C@@H](CC)C(=O)N(C)[C@H](C)C(=O)N(C)[C@@H]([C@H](C)COCCN2CC(OC)C2)C(=O)N[C@@H](C(C)C)C(=O)N(C)[C@@H](CC(C)C)C(=O)N[C@@H](C)C(=O)N[C@H](C)C(=O)N(C)[C@@H](CC(C)C)C(=O)N(C)[C@@H](CC(C)C)C(=O)N(C)[C@@H](C(C)C)C(=O)N1C [Compound 2.8.9]" recorded_measurement=300
